Measured pIC50, listed per entry for reference.
molecular target: Glucocorticoid receptor (Homo sapiens); assay: Antagonist activity at glucocorticoid receptor LBD expressed in human HUH7 cells coexpressing GAL4 by luciferase reporter gene assay
Sequence (P04150 whole entry, the tested form may be a part): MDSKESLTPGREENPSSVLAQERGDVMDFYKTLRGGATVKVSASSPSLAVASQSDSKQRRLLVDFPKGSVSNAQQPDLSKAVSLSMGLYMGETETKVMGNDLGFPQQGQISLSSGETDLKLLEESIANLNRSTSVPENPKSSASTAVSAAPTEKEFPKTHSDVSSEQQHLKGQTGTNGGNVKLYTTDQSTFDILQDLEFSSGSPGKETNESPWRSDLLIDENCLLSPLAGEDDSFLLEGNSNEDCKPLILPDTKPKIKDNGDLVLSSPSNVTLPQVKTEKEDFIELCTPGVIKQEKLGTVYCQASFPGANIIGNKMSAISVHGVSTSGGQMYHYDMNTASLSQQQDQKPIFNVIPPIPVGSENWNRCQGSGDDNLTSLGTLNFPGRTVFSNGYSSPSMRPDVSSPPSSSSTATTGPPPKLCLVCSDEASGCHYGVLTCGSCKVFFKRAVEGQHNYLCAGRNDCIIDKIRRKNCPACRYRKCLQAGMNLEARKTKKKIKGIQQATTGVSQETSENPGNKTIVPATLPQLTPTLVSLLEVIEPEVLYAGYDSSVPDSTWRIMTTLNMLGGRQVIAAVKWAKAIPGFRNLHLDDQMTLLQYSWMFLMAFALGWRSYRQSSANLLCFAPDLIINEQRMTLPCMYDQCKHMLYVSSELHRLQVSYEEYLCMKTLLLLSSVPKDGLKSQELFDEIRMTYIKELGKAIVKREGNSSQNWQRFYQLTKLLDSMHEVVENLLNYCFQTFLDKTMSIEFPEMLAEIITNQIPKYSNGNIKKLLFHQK
API: returns pIC50 as number; meaning -log10 of concentration in mol/L.

# COMPOUND, ENDPOINT_VALUE
data = [
    ("COC(=O)C1=C(Cn2cnnn2)NC(C)=C(C#N)C1c1ccc(F)cc1Cl (stereo not given)", 5.89),
    ("CCCCC1=C(C(=O)OC)C(c2ccccc2Cl)C(C#N)=C(C)N1 (stereo not given)", 5.80),
    ("CCCC1=C(C(=O)OC)C(c2ccc(F)cc2Cl)C(C#N)=C(C)N1 (stereo not given)", 6.15),
    ("CCCC1=C(C(=O)OC)C(c2ccccc2Cl)C(C#N)=C(C)N1 (stereo not given)", 5.80),
    ("COC(=O)C1=C(C(F)(F)F)NC(C)=C(C#N)C1c1ccc(F)cc1Cl (stereo not given)", 5.43),
]

Q. Give the measured pIC50 of COC(=O)C1=C(Cn2ccnc2)NC(C)=C(C#N)C1c1ccc(F)cc1Cl (stereo not given) .
A. 5.66

Q. Now the same for COC(=O)C1=C(Cn2cnnn2)NC(C)=C(C#N)[C@H]1c1ccc(F)cc1Cl
A. 6.00
